Observed IC50, system Sodium-dependent dopamine transporter (Rattus norvegicus, UniProt P23977).
experimental-endpoint: IC50 (nM)

A selection of reference data follows.
>>> test_value("[N-]=[N+]=Nc1ccc(CCN2CCN(CCCN(c3ccc(F)cc3)c3ccc(F)cc3)CC2)cc1I")
163
>>> test_value("[N-]=[N+]=Nc1ccc(CCN2CCN(CCOC(c3ccccc3)c3ccccc3)CC2)cc1I")
5.61
>>> test_value("Fc1ccc(N(CCCN2CCN(Cc3ccc(N=C=S)cc3)CC2)c2ccc(F)cc2)cc1")
75.4
>>> test_value("Fc1ccc(N(CCCN2CCN(CCCc3ccc(N=C=S)c(I)c3)CC2)c2ccc(F)cc2)cc1")
95.5

[1] Fc1ccc(N(CCCN2CCN(CCCc3ccccc3)CC2)c2ccc(F)cc2)cc1
[2] [N-]=[N+]=Nc1ccc(CCCN2CCN(CCCN(c3ccc(F)cc3)c3ccc(F)cc3)CC2)cc1I
In: Field: lower IC50 | Options: 1 / 2 Your answer should be the label of the entry you select.
Out: 1
(1: 19.5 nM, 2: 282 nM)
